read-out: MYC, MYC (gene 4609); assay: LTEA_HepaRG_MYC: Life Technologies and Expression Analysis (LTEA) Assay for MYC using HepaRG (AID 2283518); conditions: mRNA level, 48 h; actives raise or lower the signal
Active and inactive are the calls of the source. Rule for the calls: active = hit-call score of the fitted dose curve at least 0.9, where 1 is the maximum; inactive = score below 0.9.
Your reply should match one of these outcome classes. 1.0 (active), 0.0 (inactive)

Here are 2 molecules together with their reported answers.
molecule: O=C(O)C(Cl)(Cl)Cl
cat: 0.0
--
molecule: O=C(O)C(F)(F)C(F)(F)C(F)(F)C(F)(F)C(F)(F)C(F)(F)F
cat: 0.0

Req: Would you mind telling me which call this test gave `CC(C)(C)c1cc(O)ccc1O` ?
Resp: 0.0

Req: GET /call?item= `CC(C)(C)CC(C)(C)c1ccc(O)cc1` returns the recorded outcome of this test.
Resp: 0.0

Req: Returns: the outcome recorded for `O=C(O)C(F)(F)C(F)(F)C(F)(F)C(F)(F)C(F)(F)C(F)(F)C(F)(F)C(F)(F)C(F)(F)C(F)(F)F` in this assay.
Resp: 0.0

Req: Answer briefly: the call reported for `C=CC(=O)OCCCCCC(C)C` in this assay.
Resp: 0.0
